# test summary: Cytotoxicity against human U87 cells assessed as inhibition of cell proliferation after 72 hrs
# Type: functional, cell-based, U-87MG ATCC
# measurement setup: U-87 MG
pIC50: −log10 of the molar value.
Property: pIC50; scope: individual compounds

compound: C#Cc1ccc2[nH]c3c(c2c1)C/C(C(=O)OC)=C\N1CC(CC)=CC(C1)C[C@]3(C(=O)OC)c1cc2c(cc1OC)N(C)[C@H]1[C@@](O)(C(=O)OC)[C@H](OC(C)=O)[C@]3(CC)C=CCN4CC[C@]21[C@@H]43 (stereo not given in full)
pIC50: 5.80

compound: CCC1=CC2CN(/C=C(/C(=O)OC)Cc3c([nH]c4ccc(I)cc34)[C@@](C(=O)OC)(c3cc4c(cc3OC)N(C)[C@H]3[C@@](O)(C(=O)OC)[C@H](OC(C)=O)[C@]5(CC)C=CCN6CC[C@]43[C@@H]65)C2)C1 (stereo not given in full)
pIC50: 5.30

compound: CCC1=CC2CN(C1)/C(C(=O)NC(C)C)=C(/C(=O)OC)Cc1c([nH]c3ccc(C)cc13)[C@@](C(=O)OC)(c1cc3c(cc1OC)N(C)[C@H]1[C@@](O)(C(=O)OC)[C@H](OC(C)=O)[C@]4(CC)C=CCN5CC[C@]31[C@@H]54)C2 (stereo not given in full)
pIC50: 7.48

compound: CC[C@]1(O)C[C@@H]2CN(CCc3c([nH]c4ccccc34)[C@@](C(=O)OC)(c3cc4c(cc3OC)N(C)[C@H]3[C@@](O)(C(=O)OC)[C@H](OC(C)=O)[C@]5(CC)C=CCN6CC[C@]43[C@@H]65)C2)C1
pIC50: 9.00

compound: C#Cc1ccc2[nH]c3c(c2c1)C/C(C(=O)OC)=C(/C(=O)NC(C)C)N1CC(CC)=CC(C1)C[C@]3(C(=O)OC)c1cc2c(cc1OC)N(C)[C@H]1[C@@](O)(C(=O)OC)[C@H](OC(C)=O)[C@]3(CC)C=CCN4CC[C@]21[C@@H]43 (stereo not given in full)
pIC50: 5.70

====

# target desc: Tubulin (Homo sapiens) (UniProt P68371+Q9H4B7+P0DPH7+P68366+Q13509+Q71U36+P04350+Q3ZCM7+P07437+P68363+Q9BQE3+Q6PEY2+Q13885+Q9BVA1+Q9BUF5)
# test summary: Inhibition of tubulin (unknown origin) polymerization at 10 mg/ml
# Assay type: protein-complex assay

compound: CCC1=CC2CN(C1)/C(C(=O)NC(C)C)=C(/C(=O)OC)Cc1c([nH]c3ccc(C)cc13)[C@@](C(=O)OC)(c1cc3c(cc1OC)N(C)[C@H]1[C@@](O)(C(=O)OC)[C@H](OC(C)=O)[C@]4(CC)C=CCN5CC[C@]31[C@@H]54)C2 (some centres not stated)
inhibition: 0%
--
compound: C#Cc1ccc2[nH]c3c(c2c1)C/C(C(=O)OC)=C(/C(=O)NC(C)C)N1CC(CC)=CC(C1)C[C@]3(C(=O)OC)c1cc2c(cc1OC)N(C)[C@H]1[C@@](O)(C(=O)OC)[C@H](OC(C)=O)[C@]3(CC)C=CCN4CC[C@]21[C@@H]43 (some centres not stated)
inhibition: 16%

====

# test summary: Cytotoxicity against human U87 cells assessed as inhibition of cell proliferation after 72 hrs
# Format: functional, cell-based, U-87MG ATCC
# measurement setup: U-87 MG
pIC50: −log10 of the molar value.

molecule: CCC1=CC2CN(C1)/C(C(=O)NC(C)C)=C(/C(=O)OC)Cc1c([nH]c3ccc(C=O)cc13)[C@@](C(=O)OC)(c1cc3c(cc1OC)N(C)[C@H]1[C@@](O)(C(=O)OC)[C@H](OC(C)=O)[C@]4(CC)C=CCN5CC[C@]31[C@@H]54)C2 (some centres not stated)
pIC50: 6.92

molecule: CCC1=CC2CN(/C=C(/C(=O)OC)Cc3c([nH]c4ccc(Br)cc34)[C@@](C(=O)OC)(c3cc4c(cc3OC)N(C)[C@H]3[C@@](O)(C(=O)OC)[C@H](OC(C)=O)[C@]5(CC)C=CCN6CC[C@]43[C@@H]65)C2)C1 (some centres not stated)
pIC50: 5.52

====

# target desc: Tubulin (Homo sapiens) (UniProt P68371+Q9H4B7+P0DPH7+P68366+Q13509+Q71U36+P04350+Q3ZCM7+P07437+P68363+Q9BQE3+Q6PEY2+Q13885+Q9BVA1+Q9BUF5)
# test summary: Inhibition of tubulin (unknown origin) polymerization at 10 mg/ml
# Type: protein-complex assay
// values below are reported inhibition

compound: C#Cc1ccc2[nH]c3c(c2c1)C/C(C(=O)OC)=C\N1CC(CC)=CC(C1)C[C@]3(C(=O)OC)c1cc2c(cc1OC)N(C)[C@H]1[C@@](O)(C(=O)OC)[C@H](OC(C)=O)[C@]3(CC)C=CCN4CC[C@]21[C@@H]43 (some centres not stated)
uom: %
inhibition: 27

compound: CCC1=CC2CN(/C=C(/C(=O)OC)Cc3c([nH]c4ccc(Br)cc34)[C@@](C(=O)OC)(c3cc4c(cc3OC)N(C)[C@H]3[C@@](O)(C(=O)OC)[C@H](OC(C)=O)[C@]5(CC)C=CCN6CC[C@]43[C@@H]65)C2)C1 (some centres not stated)
uom: %
inhibition: 23

====

# test summary: Cytotoxicity against human U87 cells assessed as inhibition of cell proliferation after 72 hrs
# Type: functional, cell-based, U-87MG ATCC
# measurement setup: U-87 MG
pIC50: −log10 of the molar value.

molecule: CCC1=CC2CN(/C=C(/C(=O)OC)Cc3c([nH]c4ccc(C)cc34)[C@@](C(=O)OC)(c3cc4c(cc3OC)N(C)[C@H]3[C@@](O)(C(=O)OC)[C@H](OC(C)=O)[C@]5(CC)C=CCN6CC[C@]43[C@@H]65)C2)C1 (some centres undefined)
pIC50: 7.96
--
molecule: CCC1=CC2CN(/C=C(/C(=O)OC)Cc3c([nH]c4ccc(C=O)cc34)[C@@](C(=O)OC)(c3cc4c(cc3OC)N(C)[C@H]3[C@@](O)(C(=O)OC)[C@H](OC(C)=O)[C@]5(CC)C=CCN6CC[C@]43[C@@H]65)C2)C1 (some centres undefined)
pIC50: 7.64
--
molecule: CCC1=C[C@@H]2CN(C1)Cc1c([nH]c3ccccc13)[C@@](C(=O)OC)(c1cc3c(cc1OC)N(C)[C@H]1[C@@](O)(C(=O)OC)[C@H](OC(C)=O)[C@]4(CC)C=CCN5CC[C@]31[C@@H]54)C2
pIC50: 8.46
--
molecule: CCC1=CC2CN(C1)/C(C(=O)NC(C)C)=C(/C(=O)OC)Cc1c([nH]c3ccc(I)cc13)[C@@](C(=O)OC)(c1cc3c(cc1OC)N(C)[C@H]1[C@@](O)(C(=O)OC)[C@H](OC(C)=O)[C@]4(CC)C=CCN5CC[C@]31[C@@H]54)C2 (some centres undefined)
pIC50: 5.52

====

Reported inhibition values for the following compounds.
# target desc: Tubulin (Homo sapiens) (UniProt P68371+Q9H4B7+P0DPH7+P68366+Q13509+Q71U36+P04350+Q3ZCM7+P07437+P68363+Q9BQE3+Q6PEY2+Q13885+Q9BVA1+Q9BUF5)
# test summary: Inhibition of tubulin (unknown origin) polymerization at 10 mg/ml
# Format: protein-complex assay
value type: inhibition (%)

compound: CCC1=CC2CN(/C=C(/C(=O)OC)Cc3c([nH]c4ccc(C=O)cc34)[C@@](C(=O)OC)(c3cc4c(cc3OC)N(C)[C@H]3[C@@](O)(C(=O)OC)[C@H](OC(C)=O)[C@]5(CC)C=CCN6CC[C@]43[C@@H]65)C2)C1 (some centres undefined)
uom: %
measured number: 11

compound: CCC1=CC2CN(C1)/C(C(=O)NC(C)C)=C(/C(=O)OC)Cc1c([nH]c3ccc(C=O)cc13)[C@@](C(=O)OC)(c1cc3c(cc1OC)N(C)[C@H]1[C@@](O)(C(=O)OC)[C@H](OC(C)=O)[C@]4(CC)C=CCN5CC[C@]31[C@@H]54)C2 (some centres undefined)
uom: %
measured number: 25

compound: CCC1=CC2CN(C1)/C(C(=O)NC(C)C)=C(/C(=O)OC)Cc1c([nH]c3ccc(I)cc13)[C@@](C(=O)OC)(c1cc3c(cc1OC)N(C)[C@H]1[C@@](O)(C(=O)OC)[C@H](OC(C)=O)[C@]4(CC)C=CCN5CC[C@]31[C@@H]54)C2 (some centres undefined)
uom: %
measured number: 44

compound: CCC1=CC2CN(/C=C(/C(=O)OC)Cc3c([nH]c4ccc(C)cc34)[C@@](C(=O)OC)(c3cc4c(cc3OC)N(C)[C@H]3[C@@](O)(C(=O)OC)[C@H](OC(C)=O)[C@]5(CC)C=CCN6CC[C@]43[C@@H]65)C2)C1 (some centres undefined)
uom: %
measured number: 23
